experiment: DU-145 prostate tumor xenograft, PEG-docetaxel vs docetaxel; assay type: in vivo, mice; details: NCr nu/nu, mouse, in vivo, intravenous; DU-145 study, q7 d×2; read-out: tolerated dose (maximum tolerated dose)
parameter_measured: MTD at 78 day

Item CC(=O)O[C@@]12CO[C@@H]1C[C@H](O)[C@@]1(C)C(=O)[C@H](O)C3=C(C)[C@@H](OC(=O)[C@H](O)[C@@H](NC(=O)OC(C)(C)C)c4ccccc4)C[C@@](O)([C@@H](OC(=O)c4ccccc4)[C@H]21)C3(C)C has what recorded MTD at 78 day?
≤ 30 mg/kg

* * *

test: in vivo; details: NCr nu/nu, mouse
parameter_measured: MTD

Item CC(=O)O[C@@]12CO[C@@H]1C[C@H](O)[C@@]1(C)C(=O)[C@H](O)C3=C(C)[C@@H](OC(=O)[C@H](O)[C@@H](NC(=O)OC(C)(C)C)c4ccccc4)C[C@@](O)([C@@H](OC(=O)c4ccccc4)[C@H]21)C3(C)C has what recorded MTD?
≤ 30 mg/kg
